Consider the following log10 of IC50 values measured on UniProt O42275.
Sequence (O42275 whole entry): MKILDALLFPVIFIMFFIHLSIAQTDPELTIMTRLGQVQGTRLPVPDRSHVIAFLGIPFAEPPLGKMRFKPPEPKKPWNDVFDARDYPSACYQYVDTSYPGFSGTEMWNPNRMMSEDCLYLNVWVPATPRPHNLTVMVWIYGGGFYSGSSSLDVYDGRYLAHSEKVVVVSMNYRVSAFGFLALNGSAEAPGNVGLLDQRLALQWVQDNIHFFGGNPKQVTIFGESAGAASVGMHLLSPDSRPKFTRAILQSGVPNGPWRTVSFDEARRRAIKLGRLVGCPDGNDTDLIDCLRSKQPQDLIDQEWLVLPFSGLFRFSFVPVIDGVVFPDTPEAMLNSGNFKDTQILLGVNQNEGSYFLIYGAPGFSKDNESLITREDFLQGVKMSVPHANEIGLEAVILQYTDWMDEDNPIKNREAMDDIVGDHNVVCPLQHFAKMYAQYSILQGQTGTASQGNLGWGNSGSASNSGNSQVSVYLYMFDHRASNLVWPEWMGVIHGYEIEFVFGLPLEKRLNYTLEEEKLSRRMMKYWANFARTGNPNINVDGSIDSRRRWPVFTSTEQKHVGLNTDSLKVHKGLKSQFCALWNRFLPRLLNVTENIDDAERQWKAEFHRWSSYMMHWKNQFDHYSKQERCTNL
Units before log transform: nM; reported quantity: IC50; transform: log10.

UniProt O42275 assay, compound `O=C1c2ccccc2C(=O)N1CCCCCCCCNCc1ccccc1F` , recorded log10 of IC50 = 2.64

UniProt O42275 assay, compound `O=C1c2ccccc2C(=O)N1CCCCCNCc1ccccc1` , recorded log10 of IC50 = 1.89

UniProt O42275 assay, compound `O=C1c2ccccc2C(=O)N1CCCCNCc1cccc(Cl)c1` , recorded log10 of IC50 = 3.29

UniProt O42275 assay, compound `O=C1c2ccccc2C(=O)N1CCCCCCCCNCc1ccccc1` , recorded log10 of IC50 = 2.89

UniProt O42275 assay, compound `O=C1c2ccccc2C(=O)N1CCCCCCCNCc1ccc(F)cc1F` , recorded log10 of IC50 = 2.23

UniProt O42275 assay, compound `O=C1c2ccccc2C(=O)N1CCCCCNCc1ccccc1F` , recorded log10 of IC50 = 1.61

// provenance: ChEMBL document CHEMBL3414441
